# EXPERIMENT SUMMARY: chemical genetic growth profiling, strain panel (AID 1159580);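 also: tested at 20 µM; growth read once vehicle control cultures reached saturation at 30 °C; lower values mean less growth of the strain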
# CONDITION SET: S. cerevisiae deletion strains, growth OD, locus YOR080W, strain dia2
Screen size: about 5,500 compounds; about 2,000 (36%) were called active. Not shown: some 18% with an inconclusive outcome. Rule as the data show it: active = normalized growth mostly below about 0.91 (no sharp cut-off); inconclusive = no clear call, values can overlap the other calls; inactive = mostly above about 0.92. The list shows a part of the results.
Outcomes: active, inactive

[
  {
    "MOLECULE": "OC[C@H]1O[C@@H](O[C@@H]2[C@@H](CO)O[C@](O)(CO)[C@H]2O)[C@H](O)[C@@H](O)[C@H]1O",
    "LABEL CLASS": "inactive"
  },
  {
    "MOLECULE": "CC(=O)O[C@@H]1CC2C(C)(C)C(=O)C=C[C@]2(C)C2CC[C@]3(C)C(=CC(=O)O[C@H]3c3ccoc3)[C@@]21C (some centres not stated)",
    "LABEL CLASS": "inactive"
  },
  {
    "MOLECULE": "COC(=O)c1c(OC)cc2c(c1C)Oc1c(Cl)c(O)c(Cl)c(C)c1C(=O)O2",
    "LABEL CLASS": "inactive"
  },
  {
    "MOLECULE": "CC(=O)O[C@@H]1CC2C(C)(C)[C@H](O)C=C[C@]2(C)C2CC[C@]3(C)C(=CC(=O)O[C@H]3c3ccoc3)[C@@]21C (some centres not stated)",
    "LABEL CLASS": "inactive"
  },
  {
    "MOLECULE": "O=C(O)c1cc(O)c2c(c1)[C@@H]([C@H]1c3cc(C(=O)O)cc(O)c3C(=O)c3c(O[C@H]4O[C@H](CO)[C@@H](O)[C@H](O)[C@H]4O)cccc31)c1cccc(O[C@H]3O[C@H](CO)[C@@H](O)[C@H](O)[C@H]3O)c1C2=O",
    "LABEL CLASS": "active"
  },
  {
    "MOLECULE": "CC(=O)O[C@@H]1C=C[C@@]2(C)C(C[C@@H](OC(C)=O)[C@@]3(C)C4=CC(=O)O[C@@H](c5ccoc5)[C@]4(C)CCC23)C1(C)C (some centres not stated)",
    "LABEL CLASS": "inactive"
  },
  {
    "MOLECULE": "COC(=O)c1c(C)c2c(c(C)c1O)OC(=O)c1c(C)c(Cl)c(O)c(Cl)c1O2",
    "LABEL CLASS": "inactive"
  }
]

* * *

# EXPERIMENT SUMMARY: chemical genetic growth profiling, strain panel (AID 1159580);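 also: tested at 20 µM; growth read once vehicle control cultures reached saturation at 30 °C; lower values mean less growth of the strain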
# CONDITION SET: S. cerevisiae deletion strains, growth OD, locus YIL073C, strain SPO22
The whole screen tested about 5,500 compounds, of which about 2,000 (36%) were called active. Roughly 18% stayed inconclusive and do not appear here. Cut-off read from the data, not from the text of the source: active = normalized growth mostly below about 0.91 (no sharp cut-off); inconclusive = no clear call, values can overlap the other calls; inactive = mostly above about 0.92. The list shows a part of the results.
Outcomes: active, inactive

[
  {
    "MOLECULE": "CC(C)CCCC(C)C1CCC2C3C[C@@H](O)[C@@]4(O)C[C@@H](O)CC[C@]4(C)C3CC[C@]12C (stereo partly specified)",
    "LABEL CLASS": "inactive"
  },
  {
    "MOLECULE": "CC1=CC(=O)c2ccccc2C1=O",
    "LABEL CLASS": "active"
  },
  {
    "MOLECULE": "CCCc1c(OCCCCc2nn[nH]n2)ccc(C(C)=O)c1O",
    "LABEL CLASS": "inactive"
  },
  {
    "MOLECULE": "CC(N=C(NC#N)Nc1ccncc1)C(C)(C)C (stereo unspecified)",
    "LABEL CLASS": "inactive"
  },
  {
    "MOLECULE": "CN(C)CCCN1c2ccccc2Sc2ccccc21",
    "LABEL CLASS": "inactive"
  },
  {
    "MOLECULE": "CC(C)CCCC(C)[C@H]1CCC2C3CC=C4CC(=O)CC[C@]4(C)C3CC[C@@]21C (stereo partly specified)",
    "LABEL CLASS": "inactive"
  },
  {
    "MOLECULE": "CN[C@@H]1[C@H](O)[C@H](NC)[C@H]2O[C@@]3(O)C(=O)C[C@@H](C)O[C@H]3O[C@@H]2[C@H]1O",
    "LABEL CLASS": "inactive"
  },
  {
    "MOLECULE": "CC(C)CCCC(C)C1CCC2C3CC(=O)[C@H]4C[C@@H](O)CC[C@]4(C)C3CC[C@]12C (stereo partly specified)",
    "LABEL CLASS": "inactive"
  },
  {
    "MOLECULE": "CC(C)CCCC(C)C1CC[C@@]2(C)C3=C(CC[C@]12C)[C@@]1(C)CC[C@H](O)C(C)(C)C1CC3 (stereo partly specified)",
    "LABEL CLASS": "inactive"
  },
  {
    "MOLECULE": "CC(C)=CCCC(C)[C@@H]1CC[C@]2(C)C3=C(CC[C@@]12C)C1(C)CC[C@H](O)C(C)(C)C1CC3 (stereo partly specified)",
    "LABEL CLASS": "active"
  },
  {
    "MOLECULE": "CC(C)CCCC(C)[C@H]1CCC2C3CC[C@@H]4C[C@H](O)CC[C@]4(C)C3CC[C@@]21C (stereo partly specified)",
    "LABEL CLASS": "inactive"
  },
  {
    "MOLECULE": "NC1=NCCN1CC(=O)O",
    "LABEL CLASS": "inactive"
  },
  {
    "MOLECULE": "CC(C)CCCC(C)C1CCC2C3CC[C@H]4C[C@@H](O)CC[C@]4(C)C3CC[C@]12C (stereo partly specified)",
    "LABEL CLASS": "inactive"
  },
  {
    "MOLECULE": "CN(C)CCCN1c2ccccc2Sc2ccc(C(F)(F)F)cc21",
    "LABEL CLASS": "inactive"
  },
  {
    "MOLECULE": "NS(=O)(=O)c1cc2c(cc1Cl)NC(CSCc1ccccc1)=NS2(=O)=O",
    "LABEL CLASS": "inactive"
  },
  {
    "MOLECULE": "C=C1C[C@]23C[C@@]1(O)CC[C@H]2[C@@]12C=C[C@H](O)[C@@](C)(C(=O)O1)[C@H]2[C@@H]3C(=O)O",
    "LABEL CLASS": "inactive"
  },
  {
    "MOLECULE": "CN(C)CCCN1c2ccccc2CCc2ccc(Cl)cc21",
    "LABEL CLASS": "inactive"
  },
  {
    "MOLECULE": "CN(C)CCCN1c2ccccc2CCc2ccccc21",
    "LABEL CLASS": "inactive"
  },
  {
    "MOLECULE": "C=C(C)C1CCC(C)(O)C2CC3OC3(C)C2C1 (stereo unspecified)",
    "LABEL CLASS": "inactive"
  },
  {
    "MOLECULE": "COc1ccc(C2Sc3ccccc3N(CCN(C)C)C(=O)C2OC(C)=O)cc1 (stereo unspecified)",
    "LABEL CLASS": "inactive"
  },
  {
    "MOLECULE": "CNNC",
    "LABEL CLASS": "inactive"
  }
]
